- ASSAY SYSTEM: T1, DegS L164A/H198P (E. coli, UniProt P0AEE3 27-355, L164A | H198P)
- T1 sequence (looked up): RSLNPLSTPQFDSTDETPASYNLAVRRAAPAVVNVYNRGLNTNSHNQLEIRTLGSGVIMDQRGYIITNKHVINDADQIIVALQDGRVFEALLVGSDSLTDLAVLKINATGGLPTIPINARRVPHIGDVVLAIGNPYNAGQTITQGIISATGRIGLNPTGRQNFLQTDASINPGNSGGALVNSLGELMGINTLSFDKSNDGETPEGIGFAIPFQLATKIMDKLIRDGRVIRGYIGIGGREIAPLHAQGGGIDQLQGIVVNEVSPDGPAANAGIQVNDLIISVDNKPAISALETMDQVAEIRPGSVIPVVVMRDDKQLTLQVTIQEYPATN
- ASSAY COMMENT: fluorescence polarisation
pKd: −log10 of the molar value. Where no end group is shown, it is not given here. fluorescein = fluorescein, a fluorescent label on the peptide N-terminus

BINDER	pKd
fluorescein-DNRDGNVYYF [fluorescent OMP peptide fluorescein-DNRDGNVYYF]	5.60
